Taken from paper PMC9154810.

Target: hCA IX (Homo sapiens, UniProt Q16790)
Experiment: stopped-flow CO2 hydrase assay, hCA IX
Settings: ratio KI hCA I / KI hCA IX
measurement_type: Selectivity index I/IX
Response field accepts a number only; no unit should be typed.

Worked set:
In [3]: df
Out[3]:
                                   compound     val
0  NS(=O)(=O)c1ccc(-n2nnc(S(=O)(=O)c3ccccc3)c2-c2ccc(F)cc2)cc1 [Compound 9c]    4.00
1  COc1ccc(-c2c(S(=O)(=O)c3ccccc3)nnn2-c2ccc(S(N)(=O)=O)cc2)cc1 [Compound 9g]  314.73
2  NS(=O)(=O)c1cccc(-n2nnc(S(=O)(=O)c3ccccc3)c2-c2ccc(Cl)cc2)c1 [Compound 10d]   42.42
3  NS(=O)(=O)c1ccc(-n2nnc(S(=O)(=O)c3ccccc3)c2-c2cccc(Br)c2)cc1 [Compound 9f]   16.00
4  Cc1ccc(-c2c(S(=O)(=O)c3ccccc3)nnn2-c2cccc(S(N)(=O)=O)c2)cc1 [Compound 10b]   26.71

Kindly note the recorded Selectivity index I/IX for NS(=O)(=O)c1ccc(-n2nnc(S(=O)(=O)c3ccccc3)c2-c2ccc(Br)cc2)cc1 [Compound 9e] , which is 260.40

Kindly note the recorded Selectivity index I/IX for NS(=O)(=O)c1ccc(-n2nnc(S(=O)(=O)c3ccccc3)c2-c2ccc(-c3ccccc3)cc2)cc1 [Compound 9k] , which is 142.86

Kindly note the recorded Selectivity index I/IX for NS(=O)(=O)c1ccc(-n2nnc(S(=O)(=O)c3ccccc3)c2-c2ccccc2)cc1 [Compound 9a] , which is 4.55

---

Each entry below carries its recorded pKi.
Target: hCA I (Homo sapiens, UniProt P00915)
Sequence (P00915 whole entry): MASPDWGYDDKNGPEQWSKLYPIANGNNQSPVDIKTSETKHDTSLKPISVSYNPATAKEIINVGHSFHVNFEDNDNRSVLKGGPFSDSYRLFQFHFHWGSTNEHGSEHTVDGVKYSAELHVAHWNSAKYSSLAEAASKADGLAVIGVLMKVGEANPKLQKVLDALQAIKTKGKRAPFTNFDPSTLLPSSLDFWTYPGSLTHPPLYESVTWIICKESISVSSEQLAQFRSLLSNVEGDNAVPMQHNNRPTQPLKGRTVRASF
Assay: stopped-flow CO2 hydrase assay, hCA I
Conditions: mean from three assays, stopped-flow technique, errors ± 5–10%
Scale for pKi: -log10 of concentration given in mol/L; no unit attached.

Worked set:
>>> df
                                   compound   val
0  NS(=O)(=O)c1cccc(-n2nnc(S(=O)(=O)c3ccccc3)c2-c2ccc(Cl)cc2)c1 [Compound 10d]  6.16
1  COc1ccc(-c2c(S(=O)(=O)c3ccccc3)nnn2-c2cccc(S(N)(=O)=O)c2)cc1 [Compound 10g]  6.29
2  NS(=O)(=O)c1cccc(-n2nnc(S(=O)(=O)c3ccccc3)c2-c2cccc(Br)c2)c1 [Compound 10f]  6.16
3  NS(=O)(=O)c1ccc(-n2nnc(S(=O)(=O)c3ccccc3)c2-c2ccc([N+](=O)[O-])cc2)cc1  6.55
4  NS(=O)(=O)c1cccc(-n2nnc(S(=O)(=O)c3ccccc3)c2-c2ccccc2)c1 [Compound 10a]  6.22
5  NS(=O)(=O)c1ccc(-n2nnc(S(=O)(=O)c3ccccc3)c2-c2ccc(F)cc2)cc1  6.58

Kindly consider the entry below.
Kindly note the recorded pKi for NS(=O)(=O)c1cccc(-n2nnc(S(=O)(=O)c3ccccc3)c2-c2cccc([N+](=O)[O-])c2)c1 [Compound 10j] , which is 5.16

---

Quick note: these are Ki numbers for system: hCA II (Homo sapiens)
A number alone suffices; assume nM.

Worked set:
In [3]: df
Out[3]:
                                   compound           assay_target  val
0  NS(=O)(=O)c1cccc(-n2nnc(S(=O)(=O)c3ccccc3)c2-c2ccc(-c3ccccc3)cc2)c1 [Compound 10k]  hCA II (Homo sapiens)  211
1  NS(=O)(=O)c1ccc(-n2nnc(S(=O)(=O)c3ccccc3)c2-c2ccc(-c3ccccc3)cc2)cc1  hCA II (Homo sapiens)  833
2  NS(=O)(=O)c1ccc(-n2nnc(S(=O)(=O)c3ccccc3)c2-c2ccc(F)cc2)cc1  hCA II (Homo sapiens)  6.6

Kindly note the recorded Ki for NS(=O)(=O)c1cccc(-n2nnc(S(=O)(=O)c3ccccc3)c2-c2cccc(Br)c2)c1 [Compound 10f] , which is 370

---

Target: hCA II (Homo sapiens)
Each entry below carries its recorded pKi.
Scale for pKi: -log10 of concentration given in mol/L; no unit attached.

>>> print(df.to_string())
                                   molecule  measurement_type   val
0  NS(=O)(=O)c1cccc(-n2nnc(S(=O)(=O)c3ccccc3)c2-c2ccc(F)cc2)c1 [Compound 10c]               pKi  6.92

Kindly note the recorded pKi for Cc1ccc(-c2c(S(=O)(=O)c3ccccc3)nnn2-c2cccc(S(N)(=O)=O)c2)cc1 [Compound 10b] , which is 7.66

Kindly note the recorded pKi for "NS(=O)(=O)c1ccc(-n2nnc(S(=O)(=O)c3ccccc3)c2-c2cccc(Br)c2)cc1" , which is 8.04

Kindly note the recorded pKi for "NS(=O)(=O)c1ccc(-n2nnc(S(=O)(=O)c3ccccc3)c2-c2ccc(Cl)cc2)cc1" , which is 7.25

---

measurement_type: melting point

Worked set:
                                   compound  measurement_type            val
0  Cc1ccc(-c2c(S(=O)(=O)c3ccccc3)nnn2-c2cccc(S(N)(=O)=O)c2)cc1 [Compound 10b]     melting point  186 to 188 °C
1  NS(=O)(=O)c1cccc(-n2nnc(S(=O)(=O)c3ccccc3)c2-c2ccc(Cl)cc2)c1 [Compound 10d]     melting point  123 to 125 °C
2  NS(=O)(=O)c1ccc(-n2nnc(S(=O)(=O)c3ccccc3)c2-c2ccc(Br)cc2)cc1     melting point  198 to 200 °C

Kindly note the recorded melting point for NS(=O)(=O)c1cccc(-n2nnc(S(=O)(=O)c3ccccc3)c2-c2cccc(Br)c2)c1 [Compound 10f] , which is 97 to 99 °C

Kindly note the recorded melting point for "NS(=O)(=O)c1ccc(-n2nnc(S(=O)(=O)c3ccccc3)c2-c2ccccc2)cc1" , which is 214 to 216 °C

---

Biological target: hCA II (Homo sapiens, UniProt P00918)
pKi: −log10 of the molar value.
So basically: pKi at 7 or higher? That is yes (1). Lower than 7? That is no (0).

Q: Could you tell me if the measured pKi of COc1ccc(-c2c(S(=O)(=O)c3ccccc3)nnn2-c2cccc(S(N)(=O)=O)c2)cc1Br [Compound 10h] reaches 7 or more?
Result: no (0)

Q: Could you tell me if the measured pKi of NS(=O)(=O)c1cccc(-n2nnc(S(=O)(=O)c3ccccc3)c2-c2ccc([N+](=O)[O-])cc2)c1 [Compound 10i] reaches 7 or more?
Result: yes (1)

Q: Could you tell me if the measured pKi of COc1ccc(-c2c(S(=O)(=O)c3ccccc3)nnn2-c2cccc(S(N)(=O)=O)c2)cc1 [Compound 10g] reaches 7 or more?
Result: yes (1)

Q: Could you tell me if the measured pKi of NS(=O)(=O)c1cccc(-n2nnc(S(=O)(=O)c3ccccc3)c2-c2cccc([N+](=O)[O-])c2)c1 [Compound 10j] reaches 7 or more?
Result: no (0)

Q: Could you tell me if the measured pKi of NS(=O)(=O)c1cccc(-n2nnc(S(=O)(=O)c3ccccc3)c2-c2ccc(Cl)cc2)c1 [Compound 10d] reaches 7 or more?
Result: yes (1)

---

Quick note: these are Ki numbers for system: hCA IX (Homo sapiens, UniProt Q16790)
A number alone suffices; assume nM.

Worked set:
                                   compound  measurement_type   val
0  COc1ccc(-c2c(S(=O)(=O)c3ccccc3)nnn2-c2cccc(S(N)(=O)=O)c2)cc1 [Compound 10g]                Ki  24.1
1  NS(=O)(=O)c1cccc(-n2nnc(S(=O)(=O)c3ccccc3)c2-c2ccc(Cl)cc2)c1 [Compound 10d]                Ki  16.4

Known value: hCA IX (Homo sapiens, UniProt Q16790) Ki of the compound NS(=O)(=O)c1cccc(-n2nnc(S(=O)(=O)c3ccccc3)c2-c2ccc(Br)cc2)c1 [Compound 10e] equals 25.1

Known value: hCA IX (Homo sapiens, UniProt Q16790) Ki of the compound NS(=O)(=O)c1ccc(-n2nnc(S(=O)(=O)c3ccccc3)c2-c2ccc(Cl)cc2)cc1 [Compound 9d] equals 25.1

---

Quick note: these are pKi numbers for system: UniProt:P22748
Sequence (P22748 19-312): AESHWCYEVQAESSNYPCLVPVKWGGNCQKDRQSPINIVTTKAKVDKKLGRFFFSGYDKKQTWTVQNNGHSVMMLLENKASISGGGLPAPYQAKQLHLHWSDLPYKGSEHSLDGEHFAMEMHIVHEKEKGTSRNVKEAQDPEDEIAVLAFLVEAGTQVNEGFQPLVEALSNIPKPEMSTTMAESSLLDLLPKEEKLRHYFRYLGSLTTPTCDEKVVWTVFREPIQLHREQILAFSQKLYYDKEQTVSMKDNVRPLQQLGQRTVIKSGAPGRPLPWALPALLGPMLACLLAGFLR
Scale for pKi: -log10 of concentration given in mol/L; no unit attached.

                                   molecule   val
0  COc1ccc(-c2c(S(=O)(=O)c3ccccc3)nnn2-c2cccc(S(N)(=O)=O)c2)cc1 [Compound 10g]  7.08

Known value: UniProt:P22748 pKi of the molecule "COc1ccc(-c2c(S(=O)(=O)c3ccccc3)nnn2-c2ccc(S(N)(=O)=O)cc2)cc1" equals 6.31

Known value: UniProt:P22748 pKi of the molecule Cc1ccc(-c2c(S(=O)(=O)c3ccccc3)nnn2-c2cccc(S(N)(=O)=O)c2)cc1 [Compound 10b] equals 6.46

Known value: UniProt:P22748 pKi of the molecule COc1ccc(-c2c(S(=O)(=O)c3ccccc3)nnn2-c2cccc(S(N)(=O)=O)c2)cc1Br [Compound 10h] equals 5.22

Known value: UniProt:P22748 pKi of the molecule NS(=O)(=O)c1cccc(-n2nnc(S(=O)(=O)c3ccccc3)c2-c2ccc(-c3ccccc3)cc2)c1 [Compound 10k] equals 6.07

Known value: UniProt:P22748 pKi of the molecule NS(=O)(=O)c1cccc(-n2nnc(S(=O)(=O)c3ccccc3)c2-c2cccc(Br)c2)c1 [Compound 10f] equals 7.07

Known value: UniProt:P22748 pKi of the molecule "NS(=O)(=O)c1ccc(-n2nnc(S(=O)(=O)c3ccccc3)c2-c2cccc([N+](=O)[O-])c2)cc1" equals 7.05

Known value: UniProt:P22748 pKi of the molecule NS(=O)(=O)c1cccc(-n2nnc(S(=O)(=O)c3ccccc3)c2-c2ccc([N+](=O)[O-])cc2)c1 [Compound 10i] equals 7.19

Known value: UniProt:P22748 pKi of the molecule "COc1ccc(-c2c(S(=O)(=O)c3ccccc3)nnn2-c2ccc(S(N)(=O)=O)cc2)cc1Br" equals 5.92

Known value: UniProt:P22748 pKi of the molecule NS(=O)(=O)c1cccc(-n2nnc(S(=O)(=O)c3ccccc3)c2-c2ccc(Br)cc2)c1 [Compound 10e] equals 7.10

Known value: UniProt:P22748 pKi of the molecule NS(=O)(=O)c1cccc(-n2nnc(S(=O)(=O)c3ccccc3)c2-c2ccc(Cl)cc2)c1 [Compound 10d] equals 7.04
